Test system: RARg:RXRa (NR concentration 270 nM, RXRa partner concentration 90 nM)
experiment: PBM binding z-score (relative to random genomic background probes); higher = stronger binding; sequences stand for … in GC…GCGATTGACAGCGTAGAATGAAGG
Hi, to clarify the labels: label 1 covers PBM binding z-score from 4 upward, label 0 covers anything below 4.

q: Exam item: decide whether the reported PBM binding z-score for GATAGTTGGTCAGTAAAAGGTCACACACCGGTCG is at least 4.
a: label 1

q: Exam item: decide whether the reported PBM binding z-score for CGAACTAGGTCACCATGACAGTGAAGAGGTTGGA is at least 4.
a: label 1

q: Exam item: decide whether the reported PBM binding z-score for ATATGTAGGTTAGGGTCCTTCAGAAAGTAGGGAA is at least 4.
a: label 0

q: Exam item: decide whether the reported PBM binding z-score for CGAACTCGGTCAAAGGACAGTGAAAGGCGACGTA is at least 4.
a: label 0

q: Exam item: decide whether the reported PBM binding z-score for CTATGTAGGTTAACGGGGTCATTCAGTTTGAAAG is at least 4.
a: label 1

q: Exam item: decide whether the reported PBM binding z-score for ATCGAAAGGGCGTGAGGTGAGTATACAGAAAGGC is at least 4.
a: label 0

q: Exam item: decide whether the reported PBM binding z-score for CGAACTAGGTAAAGGACAGTGAATCTCCGCACGC is at least 4.
a: label 0

q: Exam item: decide whether the reported PBM binding z-score for ATATGTAGGTTAGGGTAATTCAGAAAGTAGGGAA is at least 4.
a: label 0

q: Exam item: decide whether the reported PBM binding z-score for TTACCAAGGTAAAAGGTCGTTGATGCACGCCTTG is at least 4.
a: label 0

q: Exam item: decide whether the reported PBM binding z-score for CGAACTAGGTCAAAGGCCAGTGAAAGGCGACGTA is at least 4.
a: label 1

q: Exam item: decide whether the reported PBM binding z-score for CGAACTAGGTTAAAGGACAGTGAAAGGCGACGTA is at least 4.
a: label 0

q: Exam item: decide whether the reported PBM binding z-score for ATCGAAAGGTCGTGAAGTGAGTATACAGAAAGGC is at least 4.
a: label 0

q: Exam item: decide whether the reported PBM binding z-score for TCGGGTAGGTTACGGGGGCATTCAGGGATGAAGA is at least 4.
a: label 1

q: Exam item: decide whether the reported PBM binding z-score for CCTAGCAGGCCAATCGGGGTCACTCAAGGCTTGA is at least 4.
a: label 1

q: Exam item: decide whether the reported PBM binding z-score for CATAGTTGGTCAAGGTCACACACGCTATAGGTAC is at least 4.
a: label 1

q: Exam item: decide whether the reported PBM binding z-score for CGAACTAGGTCAAAGGACAGTGGAAGGCGACGTA is at least 4.
a: label 0

q: Exam item: decide whether the reported PBM binding z-score for CTCGAAAGGTCAGTTGAGGTGAGTATACGGATAA is at least 4.
a: label 1

q: Exam item: decide whether the reported PBM binding z-score for CTATGTAGGTTAAGGGGGTCATTTAGTTTGAAAG is at least 4.
a: label 1

q: Exam item: decide whether the reported PBM binding z-score for CCTTACGGGCCACGAGGTTATAGCACGACGAGCG is at least 4.
a: label 0

q: Exam item: decide whether the reported PBM binding z-score for CGTCAAAGCTCAACTAAGGTAACGTAAAGCACGC is at least 4.
a: label 0

q: Exam item: decide whether the reported PBM binding z-score for AAATGTAGGTTAAGGGTCATTCAGGTTGGTTCGC is at least 4.
a: label 1

q: Exam item: decide whether the reported PBM binding z-score for CCTTACGGTTCACTGACAGGTTATAGCATTTGGA is at least 4.
a: label 0

q: Exam item: decide whether the reported PBM binding z-score for ATCGAAAGGTCGTCGAGGTGAGTATACACCGTTT is at least 4.
a: label 1
